Source of measurements: EPA's aquatic toxicity sets

# 48 h IGC50 (-log10 mol/L) listing for each entry below
System: Tetrahymena pyriformis
Assay details: 48 h IGC50 (-log10 mol/L); higher = more toxic
Parameter measured: 48 h IGC50 (-log10 mol/L)

{"Molecule": "Nc1c(Cl)cc([N+](=O)[O-])cc1[N+](=O)[O-]", "Parameter measured": "48 h IGC50 (-log10 mol/L)", "Experimental result": 4.12}
{"Molecule": "O=C(c1ccccc1)c1ccc(Br)cc1", "Parameter measured": "48 h IGC50 (-log10 mol/L)", "Experimental result": 4.26}
{"Molecule": "CCOC(=O)c1ccc(N)cc1", "Parameter measured": "48 h IGC50 (-log10 mol/L)", "Experimental result": 3.7}
{"Molecule": "CCCCNC", "Parameter measured": "48 h IGC50 (-log10 mol/L)", "Experimental result": 2.32}
{"Molecule": "O=[N+]([O-])c1ccc(F)cc1O", "Parameter measured": "48 h IGC50 (-log10 mol/L)", "Experimental result": 4.12}
{"Molecule": "N#CCc1ccc([N+](=O)[O-])cc1", "Parameter measured": "48 h IGC50 (-log10 mol/L)", "Experimental result": 3.13}
{"Molecule": "CCOC(=O)CI", "Parameter measured": "48 h IGC50 (-log10 mol/L)", "Experimental result": 5.92}
{"Molecule": "N#Cc1cccc(O)c1", "Parameter measured": "48 h IGC50 (-log10 mol/L)", "Experimental result": 2.94}
{"Molecule": "CCCCCCCCC(=O)O", "Parameter measured": "48 h IGC50 (-log10 mol/L)", "Experimental result": 3.35}
{"Molecule": "CCOC(=O)c1ccc(Cl)cc1", "Parameter measured": "48 h IGC50 (-log10 mol/L)", "Experimental result": 3.75}
{"Molecule": "NC(=O)CBr", "Parameter measured": "48 h IGC50 (-log10 mol/L)", "Experimental result": 4.52}
{"Molecule": "CCCCCCC(Br)C(=O)OCC (stereo not drawn)", "Parameter measured": "48 h IGC50 (-log10 mol/L)", "Experimental result": 4.5}
{"Molecule": "CCc1ccccc1O", "Parameter measured": "48 h IGC50 (-log10 mol/L)", "Experimental result": 3.16}
{"Molecule": "S=C=NCc1cccc2ccccc12", "Parameter measured": "48 h IGC50 (-log10 mol/L)", "Experimental result": 6.06}
{"Molecule": "O=[N+]([O-])c1ccccc1Br", "Parameter measured": "48 h IGC50 (-log10 mol/L)", "Experimental result": 3.75}
{"Molecule": "CC(=O)c1ccc(O)cc1C", "Parameter measured": "48 h IGC50 (-log10 mol/L)", "Experimental result": 3.19}
{"Molecule": "C/C=C/C(=O)CCCC", "Parameter measured": "48 h IGC50 (-log10 mol/L)", "Experimental result": 4.01}
{"Molecule": "CC(O)CBr (stereo not drawn)", "Parameter measured": "48 h IGC50 (-log10 mol/L)", "Experimental result": 1.81}
{"Molecule": "CCC(O)c1ccccc1 (stereo not drawn)", "Parameter measured": "48 h IGC50 (-log10 mol/L)", "Experimental result": 2.57}
{"Molecule": "OCCc1ccc(O)cc1", "Parameter measured": "48 h IGC50 (-log10 mol/L)", "Experimental result": 2.17}
{"Molecule": "c1ccc2ncccc2c1", "Parameter measured": "48 h IGC50 (-log10 mol/L)", "Experimental result": 3.09}
{"Molecule": "C=CC(=O)NCNC(=O)C=C", "Parameter measured": "48 h IGC50 (-log10 mol/L)", "Experimental result": 2.48}
{"Molecule": "CCOP(=O)(Cc1ccccc1)OCC", "Parameter measured": "48 h IGC50 (-log10 mol/L)", "Experimental result": 2.57}
{"Molecule": "O=[N+]([O-])c1cc(F)ccc1O", "Parameter measured": "48 h IGC50 (-log10 mol/L)", "Experimental result": 4.38}
{"Molecule": "CCC(=O)c1ccccc1", "Parameter measured": "48 h IGC50 (-log10 mol/L)", "Experimental result": 2.93}
{"Molecule": "CCCCCc1ccc(O)cc1", "Parameter measured": "48 h IGC50 (-log10 mol/L)", "Experimental result": 4.58}
{"Molecule": "C=CCC(C(=O)OCC)C(=O)OCC", "Parameter measured": "48 h IGC50 (-log10 mol/L)", "Experimental result": 2.94}
{"Molecule": "Cc1c(N)cccc1O", "Parameter measured": "48 h IGC50 (-log10 mol/L)", "Experimental result": 2.45}
{"Molecule": "CCC(Cl)C(=O)O (stereo not drawn)", "Parameter measured": "48 h IGC50 (-log10 mol/L)", "Experimental result": 2.65}
{"Molecule": "COC(=O)c1ccccc1", "Parameter measured": "48 h IGC50 (-log10 mol/L)", "Experimental result": 3.23}
{"Molecule": "C=C(C)CCC(C)=O", "Parameter measured": "48 h IGC50 (-log10 mol/L)", "Experimental result": 2.12}
{"Molecule": "Cc1ccc(C)c(N)c1", "Parameter measured": "48 h IGC50 (-log10 mol/L)", "Experimental result": 2.67}
{"Molecule": "CCCCCCCCC(=O)OC", "Parameter measured": "48 h IGC50 (-log10 mol/L)", "Experimental result": 4.04}
{"Molecule": "Cc1ccc(C)cc1", "Parameter measured": "48 h IGC50 (-log10 mol/L)", "Experimental result": 3.25}
{"Molecule": "Cc1ccc(Cl)c(C=O)c1F", "Parameter measured": "48 h IGC50 (-log10 mol/L)", "Experimental result": 3.74}
{"Molecule": "O=Cc1cccs1", "Parameter measured": "48 h IGC50 (-log10 mol/L)", "Experimental result": 2.95}
{"Molecule": "O=C(O)CCCCC(=O)O", "Parameter measured": "48 h IGC50 (-log10 mol/L)", "Experimental result": 2.39}
{"Molecule": "Cc1ccsc1", "Parameter measured": "48 h IGC50 (-log10 mol/L)", "Experimental result": 2.3}
{"Molecule": "c1ccc2cnncc2c1", "Parameter measured": "48 h IGC50 (-log10 mol/L)", "Experimental result": 2.66}
{"Molecule": "COc1cc(OC)c(OC)cc1C=O", "Parameter measured": "48 h IGC50 (-log10 mol/L)", "Experimental result": 2.9}
{"Molecule": "C#CC(O)C(C)C (stereo not drawn)", "Parameter measured": "48 h IGC50 (-log10 mol/L)", "Experimental result": 2.97}
{"Molecule": "C=Cc1ccc2ccccc2c1", "Parameter measured": "48 h IGC50 (-log10 mol/L)", "Experimental result": 4.24}
{"Molecule": "O=C(c1ccc(Br)cc1)c1cccnc1", "Parameter measured": "48 h IGC50 (-log10 mol/L)", "Experimental result": 3.82}
{"Molecule": "CC(C)(O)Cc1ccccc1", "Parameter measured": "48 h IGC50 (-log10 mol/L)", "Experimental result": 2.59}
{"Molecule": "O=C(c1ccccc1)c1ccncc1", "Parameter measured": "48 h IGC50 (-log10 mol/L)", "Experimental result": 2.91}
{"Molecule": "CCCCCOC(=O)CC", "Parameter measured": "48 h IGC50 (-log10 mol/L)", "Experimental result": 2.96}
{"Molecule": "O=Cc1ccc(Cl)o1", "Parameter measured": "48 h IGC50 (-log10 mol/L)", "Experimental result": 3.07}
{"Molecule": "CCCCCCc1ccc(O)cc1O", "Parameter measured": "48 h IGC50 (-log10 mol/L)", "Experimental result": 4.8}
{"Molecule": "Oc1ccc(Oc2ccccc2)cc1", "Parameter measured": "48 h IGC50 (-log10 mol/L)", "Experimental result": 4.36}
{"Molecule": "CC=CC(=O)OC(C)C", "Parameter measured": "48 h IGC50 (-log10 mol/L)", "Experimental result": 2.22}
{"Molecule": "CCN(C)CC", "Parameter measured": "48 h IGC50 (-log10 mol/L)", "Experimental result": 2.24}
{"Molecule": "N#CC(Br)Br", "Parameter measured": "48 h IGC50 (-log10 mol/L)", "Experimental result": 5.4}
{"Molecule": "O=Cc1ccc(O)c2ccccc12", "Parameter measured": "48 h IGC50 (-log10 mol/L)", "Experimental result": 4.05}
{"Molecule": "NCCN1CCNCC1", "Parameter measured": "48 h IGC50 (-log10 mol/L)", "Experimental result": 2.21}
{"Molecule": "CCCCCCC#CC(=O)OC", "Parameter measured": "48 h IGC50 (-log10 mol/L)", "Experimental result": 4.32}
{"Molecule": "O=Cc1cc(O)c(O)c(O)c1", "Parameter measured": "48 h IGC50 (-log10 mol/L)", "Experimental result": 2.8}
{"Molecule": "O=Cc1cc(Cl)cc(Cl)c1Cl", "Parameter measured": "48 h IGC50 (-log10 mol/L)", "Experimental result": 4.72}
{"Molecule": "O=C(c1ccccc1)C(F)(F)F", "Parameter measured": "48 h IGC50 (-log10 mol/L)", "Experimental result": 2.99}
